Sequence of the target: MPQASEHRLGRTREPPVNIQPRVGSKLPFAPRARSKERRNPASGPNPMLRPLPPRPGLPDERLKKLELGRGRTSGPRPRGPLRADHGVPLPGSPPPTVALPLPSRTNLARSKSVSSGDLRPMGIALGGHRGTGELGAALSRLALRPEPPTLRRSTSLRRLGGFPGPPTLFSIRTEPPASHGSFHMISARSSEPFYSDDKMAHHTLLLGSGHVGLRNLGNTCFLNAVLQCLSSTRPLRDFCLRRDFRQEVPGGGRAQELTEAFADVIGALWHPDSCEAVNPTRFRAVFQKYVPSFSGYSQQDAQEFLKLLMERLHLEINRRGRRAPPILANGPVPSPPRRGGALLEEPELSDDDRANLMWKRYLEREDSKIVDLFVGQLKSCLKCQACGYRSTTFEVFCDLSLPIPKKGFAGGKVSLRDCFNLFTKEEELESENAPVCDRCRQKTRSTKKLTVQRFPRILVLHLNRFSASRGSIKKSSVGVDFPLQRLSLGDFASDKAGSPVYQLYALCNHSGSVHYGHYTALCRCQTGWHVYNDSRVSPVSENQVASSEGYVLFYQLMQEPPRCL
pIC50: −log10 of the molar value.
measured-attribute: pIC50

{"columns": ["compound", "pIC50"],
 "data": [
  ["N#CN1CCC[C@H]1C(=O)N1CCc2c(-c3c[nH]c4ncccc34)cccc21", "< 5.00"],
  ["N#CN1CCC[C@@H]1C(=O)N1CCc2c(-c3c[nH]c4ncccc34)cccc21", "< 5.00"]
]}

Now, please, on to the next compound.
Find the recorded pIC50 belonging to CC(=O)O/N=C1\C(=O)N(Cc2cc(Cl)ccc2Cl)c2ccc(Cl)cc21 [LDN-57444, reference compound] and report it.
< 5.00

---

Target: USP34 (Homo sapiens, UniProt Q70CQ2)
Sequence (Q70CQ2 whole entry): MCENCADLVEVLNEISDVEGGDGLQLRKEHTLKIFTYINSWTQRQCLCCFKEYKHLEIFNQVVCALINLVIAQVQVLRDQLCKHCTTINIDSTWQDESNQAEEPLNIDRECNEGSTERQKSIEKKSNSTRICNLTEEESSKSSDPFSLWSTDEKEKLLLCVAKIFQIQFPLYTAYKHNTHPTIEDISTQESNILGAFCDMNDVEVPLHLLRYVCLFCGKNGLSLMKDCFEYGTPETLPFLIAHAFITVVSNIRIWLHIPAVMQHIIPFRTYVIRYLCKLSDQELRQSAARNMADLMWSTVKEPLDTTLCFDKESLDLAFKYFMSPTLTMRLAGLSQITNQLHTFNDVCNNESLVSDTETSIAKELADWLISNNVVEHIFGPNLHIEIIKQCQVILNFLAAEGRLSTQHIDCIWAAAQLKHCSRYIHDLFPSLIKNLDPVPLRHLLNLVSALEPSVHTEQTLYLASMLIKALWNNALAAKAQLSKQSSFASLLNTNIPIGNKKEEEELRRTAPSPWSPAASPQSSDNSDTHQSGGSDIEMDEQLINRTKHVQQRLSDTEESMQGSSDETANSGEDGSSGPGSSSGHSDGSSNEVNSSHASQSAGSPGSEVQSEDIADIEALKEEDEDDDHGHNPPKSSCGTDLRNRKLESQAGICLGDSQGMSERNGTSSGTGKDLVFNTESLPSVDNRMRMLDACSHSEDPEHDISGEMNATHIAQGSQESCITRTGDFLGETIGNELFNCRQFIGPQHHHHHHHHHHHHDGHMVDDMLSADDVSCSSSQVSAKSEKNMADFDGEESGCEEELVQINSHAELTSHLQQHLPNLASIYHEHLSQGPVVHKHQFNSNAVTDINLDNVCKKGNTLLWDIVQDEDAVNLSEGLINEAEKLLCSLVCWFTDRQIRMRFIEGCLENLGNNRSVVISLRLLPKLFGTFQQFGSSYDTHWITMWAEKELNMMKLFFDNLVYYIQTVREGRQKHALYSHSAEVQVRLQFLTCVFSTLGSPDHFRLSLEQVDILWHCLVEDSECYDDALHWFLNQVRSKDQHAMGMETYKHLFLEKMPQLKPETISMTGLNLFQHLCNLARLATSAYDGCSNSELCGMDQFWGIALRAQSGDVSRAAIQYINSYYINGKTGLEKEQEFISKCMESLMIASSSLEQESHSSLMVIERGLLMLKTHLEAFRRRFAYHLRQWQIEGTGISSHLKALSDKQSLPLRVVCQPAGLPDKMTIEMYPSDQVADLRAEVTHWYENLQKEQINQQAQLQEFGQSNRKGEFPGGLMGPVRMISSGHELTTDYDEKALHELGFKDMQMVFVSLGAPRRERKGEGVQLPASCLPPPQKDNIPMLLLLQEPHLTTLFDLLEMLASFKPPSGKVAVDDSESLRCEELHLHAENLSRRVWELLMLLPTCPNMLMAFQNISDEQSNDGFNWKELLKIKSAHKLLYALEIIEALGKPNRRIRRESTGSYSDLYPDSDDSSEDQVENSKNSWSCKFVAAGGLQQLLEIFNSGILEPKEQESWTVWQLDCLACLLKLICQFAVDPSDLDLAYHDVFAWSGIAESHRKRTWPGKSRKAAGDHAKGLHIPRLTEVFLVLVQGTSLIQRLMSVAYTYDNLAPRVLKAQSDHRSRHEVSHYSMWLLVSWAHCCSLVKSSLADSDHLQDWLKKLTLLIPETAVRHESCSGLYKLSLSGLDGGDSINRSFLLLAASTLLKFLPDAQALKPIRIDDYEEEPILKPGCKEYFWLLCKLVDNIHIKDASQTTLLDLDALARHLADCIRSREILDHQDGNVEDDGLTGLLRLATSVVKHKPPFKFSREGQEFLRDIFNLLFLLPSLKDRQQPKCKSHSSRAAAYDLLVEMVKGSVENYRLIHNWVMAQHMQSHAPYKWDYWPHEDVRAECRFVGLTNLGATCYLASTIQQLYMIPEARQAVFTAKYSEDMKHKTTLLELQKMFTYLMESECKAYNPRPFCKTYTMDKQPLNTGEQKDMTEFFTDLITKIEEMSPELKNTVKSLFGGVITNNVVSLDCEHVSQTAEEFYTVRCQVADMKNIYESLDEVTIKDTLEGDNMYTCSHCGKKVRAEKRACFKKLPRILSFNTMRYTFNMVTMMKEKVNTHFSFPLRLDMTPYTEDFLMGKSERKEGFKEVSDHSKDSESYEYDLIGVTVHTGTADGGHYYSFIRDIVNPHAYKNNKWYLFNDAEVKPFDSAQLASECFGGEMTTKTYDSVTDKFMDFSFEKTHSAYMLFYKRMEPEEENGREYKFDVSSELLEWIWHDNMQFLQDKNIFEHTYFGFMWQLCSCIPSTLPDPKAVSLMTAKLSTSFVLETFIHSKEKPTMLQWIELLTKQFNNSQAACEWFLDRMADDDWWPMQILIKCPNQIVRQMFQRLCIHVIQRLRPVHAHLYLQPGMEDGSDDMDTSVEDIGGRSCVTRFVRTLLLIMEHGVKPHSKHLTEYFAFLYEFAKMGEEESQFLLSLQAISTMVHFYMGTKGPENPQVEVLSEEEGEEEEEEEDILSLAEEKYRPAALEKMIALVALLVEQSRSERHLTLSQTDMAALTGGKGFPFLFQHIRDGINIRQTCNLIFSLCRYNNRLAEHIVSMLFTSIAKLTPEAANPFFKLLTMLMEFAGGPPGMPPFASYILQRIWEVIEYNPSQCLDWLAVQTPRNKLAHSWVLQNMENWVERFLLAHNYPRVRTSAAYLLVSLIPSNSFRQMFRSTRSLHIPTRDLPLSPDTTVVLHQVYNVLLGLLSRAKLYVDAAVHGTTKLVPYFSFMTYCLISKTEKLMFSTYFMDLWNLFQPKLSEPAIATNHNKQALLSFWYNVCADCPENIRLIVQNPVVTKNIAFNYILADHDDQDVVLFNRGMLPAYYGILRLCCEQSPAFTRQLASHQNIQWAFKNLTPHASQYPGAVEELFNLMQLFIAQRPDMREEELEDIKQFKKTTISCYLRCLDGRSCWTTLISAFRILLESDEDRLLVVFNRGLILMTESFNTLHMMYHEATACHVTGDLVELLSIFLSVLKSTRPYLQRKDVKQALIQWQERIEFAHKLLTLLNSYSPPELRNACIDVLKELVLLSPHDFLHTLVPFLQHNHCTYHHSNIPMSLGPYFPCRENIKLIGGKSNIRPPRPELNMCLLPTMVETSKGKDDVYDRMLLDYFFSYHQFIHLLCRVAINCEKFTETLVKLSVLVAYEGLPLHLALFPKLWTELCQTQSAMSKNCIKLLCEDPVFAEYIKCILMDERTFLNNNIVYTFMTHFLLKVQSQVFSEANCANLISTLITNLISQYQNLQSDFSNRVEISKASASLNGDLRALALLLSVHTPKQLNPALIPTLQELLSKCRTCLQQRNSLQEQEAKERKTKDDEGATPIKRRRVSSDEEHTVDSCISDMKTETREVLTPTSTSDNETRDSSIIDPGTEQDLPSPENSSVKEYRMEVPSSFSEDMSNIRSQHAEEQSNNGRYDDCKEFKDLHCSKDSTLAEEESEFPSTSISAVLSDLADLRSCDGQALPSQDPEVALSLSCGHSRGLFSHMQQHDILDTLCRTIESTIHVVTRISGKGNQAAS
pIC50: −log10 of the molar value.
Could you please report measured pIC50 for the items listed next?

{"columns": ["molecule", "test-system", "pIC50"],
 "data": [
  ["N#CN1CCC[C@@H]1C(=O)N1CCc2c(-c3c[nH]c4ncccc34)cccc21", "USP34 (Homo sapiens, UniProt Q70CQ2)", "< 5.00"]
]}

For every listed record, write down its pIC50.
1. CC(=O)O/N=C1\C(=O)N(Cc2cc(Cl)ccc2Cl)c2ccc(Cl)cc21 [LDN-57444, reference compound]
2. C#Cc1cnc2[nH]cc(-c3cccc4c3CCN4C(=O)[C@@H]3CCCN3C#N)c2c1
3. N#CN1CCC[C@H]1C(=O)N1CCc2c(-c3c[nH]c4ncccc34)cccc21

< 5.00
5.00 to 6.00
5.00 to 6.00
